target: human GLP-1 receptor (human, UniProt P43220 24-463); assay: cell-based or functional assay
Sequence (P43220 24-463): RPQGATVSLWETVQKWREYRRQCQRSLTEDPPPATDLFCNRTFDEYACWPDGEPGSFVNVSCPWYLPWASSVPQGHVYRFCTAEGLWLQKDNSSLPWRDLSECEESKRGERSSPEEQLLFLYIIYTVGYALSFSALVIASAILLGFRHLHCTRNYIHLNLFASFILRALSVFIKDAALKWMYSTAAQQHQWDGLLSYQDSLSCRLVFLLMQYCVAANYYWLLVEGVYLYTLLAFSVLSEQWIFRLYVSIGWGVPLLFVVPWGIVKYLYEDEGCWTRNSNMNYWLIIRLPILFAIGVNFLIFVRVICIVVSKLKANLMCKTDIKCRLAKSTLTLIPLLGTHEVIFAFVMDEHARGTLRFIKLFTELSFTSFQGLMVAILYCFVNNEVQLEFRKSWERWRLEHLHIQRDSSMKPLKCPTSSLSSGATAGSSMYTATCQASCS
Starred links: 1 amine or outer side, 2 acyl side, 3 side chain; linkers in the order of their positions; H or OH if unused. Non-standard residues stand in square brackets, D forms with d. No end group written: not given here. NMe2F‑APPA = N-methyl-2-amino-5-(2-fluorophenyl)pentanoic acid, CN([C@@H](CCCc1ccccc1F)C(=O)[*:2])[*:1]; AMCB = 2-amino-5-(4-chloro-2-methylphenyl)pentanoic acid, Cc1cc(Cl)ccc1CCC[C@H](N[*:1])C(=O)[*:2]; 2CF3,4F‑APPA = 2-amino-5-(4-fluoro-2-(trifluoromethyl)phenyl)pentanoic acid; Bip(2'-Et-4'-OMe) = CCc1cc(OC)ccc1-c1ccc(C[C@H](N)C(=O)O)cc1; 2F‑APPA = 2-amino-5-(2-fluorophenyl)pentanoic acid; αMePhe(2-F) = C[C@](N)(Cc1ccccc1F)C(=O)O; NMeBip(OMe) = N-methylated Bip(OMe); hhPhe = N[C@@H](CCCc1ccccc1)C(=O)O; NMeD = CN[C@@H](CC(=O)O)C(=O)O; aThr = C[C@H](O)[C@H](N)C(=O)O; CNB = not defined here; Aib = CC(C)(N)C(=O)O
Readout: cAMP release, % activity, 10 µM (%)
// return numeric value only (unit: %, not printed)

Read the entry H[Aib][CNB]G[aThr][αMePhe(2-F)][aThr]SD[Bip(2'-Et-4'-OMe)][2F‑APPA] (reading uncertain; also: reduced (CH2) bonds Z9-Z10 and Z10-Z11) [Seq. ID. No. 204: H-Aib-(CNB)-G-T(allo)-(α-Me-2F-Phe)-T(allo)-SD-(CH2)-Bip(OMe)-(CH2)-(2F-APPA)] and write its reported cAMP release, % activity, 10 µM.
99

Given the binder H[Aib][CNB]G[aThr][αMePhe(2-F)][aThr]SD[Bip(2'-Et-4'-OMe)][hhPhe] (reading uncertain; also: thioamide bond between residues 10 and 11) [Seq. ID. No. 166: H-Aib-(CNB)-G-T(allo)-(α-Me-2F-Phe)-T(allo)-SD-Bip(OMe)-(C═S)-(APPA)] , write its reported cAMP release, % activity, 10 µM.
99

Please list cAMP release, % activity, 10 µM recorded for the binder Ac-H[Aib][CNB]GT[αMePhe(2-F)]TSD[Bip(2'-Et-4'-OMe)][hhPhe] (reading uncertain) [Seq. ID. No. 205: CH3CO-H-Aib-(CNB)-GT-(α-Me-2F-Phe)-TSD-Bip(OMe)-(APPA)]
99

Annotate the binder H[Aib][CNB]G[aThr][αMePhe(2-F)][aThr]SD[Bip(2'-Et-4'-OMe)][2F‑APPA] (reading uncertain) [Seq. ID. No. 116: H-Aib-(CNB)-G-T(allo)-(α-Me-2F-Phe)-T(allo)-SD-Bip(OMe)-(2F-APPA)] with its measured cAMP release, % activity, 10 µM.
99

Specify measured cAMP release, % activity, 10 µM for H[Aib][CNB]GTFTSD[Bip(2'-Et-4'-OMe)][2CF3,4F‑APPA] (reading uncertain) [Seq. ID. No. 80: H-Aib-(CNB)-GTFTSD-Bip(OMe)-(2CF3, 4F-APPA)] .
99

State, in one line, measured cAMP release, % activity, 10 µM of H[Aib][CNB]G[aThr][αMePhe(2-F)][aThr]S[NMeD][NMeBip(OMe)][NMe2F‑APPA] (reading uncertain)
99

Identify the reported cAMP release, % activity, 10 µM for the following entry. H[Aib][CNB]G[aThr][αMePhe(2-F)][aThr]SD[Bip(2'-Et-4'-OMe)][hhPhe] (reading uncertain; also: reduced (CH2) bond between 10 and 11) [Seq. ID. No. 190: H-Aib-(CNB)-G-T(allo)-(α-Me-2F-Phe)-T(allo)-SD-Bip(OMe)-(CH2)-(APPA)]
98

Quick one: give measured cAMP release, % activity, 10 µM for H[Aib][CNB]GTFTSD[Bip(2'-Et-4'-OMe)][2F‑APPA] (reading uncertain) [Seq. ID. No. 77: H-Aib-(CNB)-GTFTSD-Bip(OMe)-(2F-APPA)]
98

Identify measured cAMP release, % activity, 10 µM corresponding to H[Aib][CNB]GTFTSD[Bip(2'-Et-4'-OMe)][AMCB] (reading uncertain) [Seq. ID. No. 32: H-Aib-(CNB)-GTFTSD-Bip(OMe)-(AMCB)]
99
